These data points were gathered from PubChem BioAssay AID1508622.

- MEASUREMENT_DESCRIPTION: Confirmatory qHTS for Identification of Small Molecule Activators of Huntingtin-Antisense Promoter Activity
- RUN_CONDITIONS: HEK293 HTT-AS promoter firefly luciferase reporter, 24 h; series mostly up to 57.5 µM
Active and inactive are the calls of the source. Calls follow the shape of the dose curve; as a rule, active = well fitted activation curve with a large enough effect; inconclusive = small, poorly fitted or top-dose-only effect; inactive = no such curve, though single readings can be large or run the other way.
Thanks in advance; please answer with one of these: active, inactive

Solved entries (count: 10):
# COMPOUND, CLASS_ASSIGNMENT
data = [
    ("Cc1cccc(N2CCN(C(=O)C3CCN(S(=O)(=O)c4c(C)noc4C)CC3)CC2)c1C", "inactive"),
    ("CCOC(=O)c1ccc(N2C(=O)c3[nH]nc(-c4ccccc4)c3C2c2cccs2)cc1 (centres undefined)", "inactive"),
    ("Cn1cnc(S(=O)(=O)N2CCC(C(=O)Nc3ccc(OC(F)(F)F)cc3)CC2)c1", "inactive"),
    ("COc1ccc(N(CC(=O)N2CCN(c3cccc(C)c3C)CC2)S(=O)(=O)c2c(C)noc2C)cc1", "inactive"),
    ("COc1ccc(-c2noc(N3CCN(c4ccc(C)cc4)C(C)C3)n2)cc1OC (centres undefined)", "inactive"),
    ("CO[C@H]1C=CC=C(C)C(=O)NC2=CC(=O)C(NCCN(C)C)=C(C[C@@H](C)C[C@H](OC)[C@@H](O)[C@@H](C)C=C(C)[C@@H]1OC(N)=O)C2=O", "inactive"),
    ("CCOC(=O)c1ccc(Nc2nc3nonc3nc2Nc2cccc(C)c2C)cc1", "inactive"),
    ("Cc1ccc(Cl)cc1N1CCN(CCCNC(=O)C2COc3ccccc3C2)CC1 (centres undefined)", "inactive"),
    ("CCOC(=O)Cc1ccc(NC(=O)N(Cc2ccc(CC)cc2)Cc2cn[nH]c2-c2ccc(OC)cc2)cc1", "inactive"),
    ("CCOC(=O)C1CCN(S(=O)(=O)c2ccc(N3CCCCS3(=O)=O)cc2)CC1", "inactive"),
]

Challenge: What was the test verdict on `CC(C)(C)C(=O)NCCc1nc2ccccc2n1CCCCOc1ccc(Cl)cc1` ?
Response given: inactive

Challenge: Query: recorded result category for `CCn1c(=O)n(CC)c2cc(N3CCCCC3)c(NC(=O)Nc3cc(Cl)ccc3OC)cc21` in this test
Response given: inactive

Challenge: Can you look up the reported call for CCc1ccc(-n2c(SCC(=O)NC(C)CC)nc3n[nH]c(C)c3c2=N)cc1 (centres undefined) for me?
Response given: inactive

Challenge: Would you mind telling me which call this test gave `O=C(c1cccs1)N(Cc1cccnc1)c1nc2ccc(F)cc2s1` ?
Response given: inactive

Challenge: Short answer needed: outcome of this test for `CCCc1cc(N2CCN(c3ccc(OC)cc3)CC2)n2cnnc2n1` ?
Response given: inactive

Challenge: Can you look up the reported call for `Cc1ccc(NCc2cccn2-c2nnc(N3CCC(C(=O)NCc4ccc(OC(C)C)cc4)CC3)s2)cc1` for me?
Response given: inactive

Challenge: Name the outcome recorded for `CCc1ccc(NC(=O)c2ccc(F)c(S(=O)(=O)N3CCN(c4cc(C)ccc4C)CC3)c2)cc1` in the assay.
Response given: inactive

Challenge: Could you kindly confirm the outcome this assay logged for `Cc1cc(SCC(=O)Nc2nsc(-c3ccc(C(C)(C)C)cc3)n2)nc2ccccc12` ?
Response given: active

Challenge: Recorded call for `Cc1ccc2nc(CSc3nnc(NC(=O)COc4ccccc4)s3)cc(=O)n2c1` ?
Response given: inactive
